test system: GTPase KRas (Homo sapiens), P01116 [G12C]; assay: Inhibition of KRAS G12C mutant (unknown origin) at 10 uM incubated for 0.02 hrs in presence of GDP by rapidfire mass spectrometry analysis relative to control
Sequence (P01116 whole entry G12C): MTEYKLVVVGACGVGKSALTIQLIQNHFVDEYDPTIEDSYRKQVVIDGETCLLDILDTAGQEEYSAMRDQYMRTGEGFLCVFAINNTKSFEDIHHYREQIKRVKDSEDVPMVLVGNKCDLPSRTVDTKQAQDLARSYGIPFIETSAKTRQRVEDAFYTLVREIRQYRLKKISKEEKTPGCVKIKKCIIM
inhibition of 10% or higher: criterion met. Under 10%: criterion not met.

| STRUCTURE | DISCRETE_LABEL |
| --- | --- |
| C=CC(=O)N1CC(NC(=O)Cn2cc(C(=O)N3CCc4c(cccc4OC)C3)c3cc(Br)ccc32)C1 | criterion met |
| C=CC(=O)N1CC(NC(=O)Cn2c(C3CC3)c(C(=O)N3CCc4c(cccc4OC)C3)c3cc(Br)ccc32)C1 | criterion met |
| C=CC(=O)N1CC(NC(=O)Cn2c(C3CC3)c(C(=O)N3CCc4c(cccc4OC)C3)c3cc(Cl)cc(C)c32)C1 | criterion met |
| C=CC(=O)N1CC(NC(=O)Cn2cc(C(=O)N3CCc4ccccc4C3)c3cc(Br)ccc32)C1 | criterion not met |
| C=CC(=O)N1CC(NC(=O)Cn2c(C)c(C(=O)N3CCc4c(cccc4OC)C3)c3cc(Br)ccc32)C1 | criterion met |
| C=CC(=O)N1CC(NC(=O)Cn2c(C)c(C(=O)N3CCc4c(cccc4OC)C3)c3cc(Cl)cc(C)c32)C1 | criterion met |

====

// IC50 lookup, one value per entry
target: GTPase KRas (Homo sapiens, UniProt P01116, G12C); assay: Inhibition of KRAS G12C mutant in human MIAPaCa2 cells assessed as reduction in EGF-induced ERK1/2 phosphorylation incubated for 4 hrs followed by EGF addition by luminescence based assay
MEASURE_NAME: IC50 (nM)

| STRUCTURE | TARGET_UNDER_TEST | MEASURE_NAME | UNIT_OF_MEASUREMENT | READING |
| --- | --- | --- | --- | --- |
| C=CC(=O)N1CC(NC(=O)Cn2c(C3CC3)c(C(=O)N3CCc4c(cccc4OC)C3)c3cc(Br)ccc32)C1 | GTPase KRas (Homo sapiens, UniProt P01116, G12C) | IC50 | nM | 604 |
| C=CC(=O)N1CC(NC(=O)COc2ccc(Br)cc2C(=O)N2CC=C(c3ccccc3)C2)C1 | GTPase KRas (Homo sapiens, UniProt P01116, G12C) | IC50 | nM | 11300 |
| C=CC(=O)N1CC(NC(=O)Cn2c(C)c(C(=O)N3CCc4c(cccc4OC)C3)c3cc(Br)cc(C)c32)C1 | GTPase KRas (Homo sapiens, UniProt P01116, G12C) | IC50 | nM | 299 |
| C=CC(=O)N1CC(NC(=O)Cn2c(C)c(C(=O)N3CCc4c(cccc4OC)C3)c3cc(Br)ccc32)C1 | GTPase KRas (Homo sapiens, UniProt P01116, G12C) | IC50 | nM | 1680 |
| C=CC(=O)N1CC(NC(=O)Cn2c(C)c(C(=O)N3CCc4c(cccc4OC)C3)c3cc(Cl)ccc32)C1 | GTPase KRas (Homo sapiens, UniProt P01116, G12C) | IC50 | nM | 3550 |
| C=CC(=O)N1CC(NC(=O)Cn2cc(C(=O)N3CCc4c(cccc4OC)C3)c3cc(Br)ccc32)C1 | GTPase KRas (Homo sapiens, UniProt P01116, G12C) | IC50 | nM | 11400 |
